Reported IC50 for target or system Acetylcholinesterase (Electrophorus electricus, UniProt O42275), by entry.

Structure Notation | Measured On | IC50
COc1ccc2cc3[n+](cc2c1OCCCCOn1nnc2ccccc21)CCc1cc2c(cc1-3)OCO2 | Acetylcholinesterase (Electrophorus electricus, UniProt O42275) | 224 nM
COc1ccc2cc3[n+](cc2c1OCCOc1cccc2[nH]c4ccccc4c12)CCc1cc2c(cc1-3)OCO2 | Acetylcholinesterase (Electrophorus electricus, UniProt O42275) | 1230 nM
COc1ccc2cc3[n+](cc2c1OCCCCCOn1nnc2ccccc21)CCc1cc2c(cc1-3)OCO2 | Acetylcholinesterase (Electrophorus electricus, UniProt O42275) | 280 nM
COc1ccc2cc3[n+](cc2c1OCCCCCOc1ccccc1)CCc1cc2c(cc1-3)OCO2 | Acetylcholinesterase (Electrophorus electricus, UniProt O42275) | 398 nM
COc1ccc2cc3[n+](cc2c1OCCOn1nnc2ccccc21)CCc1cc2c(cc1-3)OCO2 | Acetylcholinesterase (Electrophorus electricus, UniProt O42275) | 375 nM
COc1ccc2cc3[n+](cc2c1OCCCOc1ccccc1)CCc1cc2c(cc1-3)OCO2 | Acetylcholinesterase (Electrophorus electricus, UniProt O42275) | 123 nM
COc1ccc2cc3[n+](cc2c1OCCCOc1cccc2[nH]c4ccccc4c12)CCc1cc2c(cc1-3)OCO2 | Acetylcholinesterase (Electrophorus electricus, UniProt O42275) | 1120 nM
COc1ccc2cc3[n+](cc2c1OCCCCCOc1cccc2[nH]c4ccccc4c12)CCc1cc2c(cc1-3)OCO2 | Acetylcholinesterase (Electrophorus electricus, UniProt O42275) | 1680 nM
COc1ccc2cc3[n+](cc2c1OCCCCCCOn1nnc2ccccc21)CCc1cc2c(cc1-3)OCO2 | Acetylcholinesterase (Electrophorus electricus, UniProt O42275) | 515 nM

From: ChEMBL document CHEMBL1159112
